Test Target: Kv1.5 channels from humans (Homo sapiens, UniProt P22460)
Sequence (P22460 whole entry): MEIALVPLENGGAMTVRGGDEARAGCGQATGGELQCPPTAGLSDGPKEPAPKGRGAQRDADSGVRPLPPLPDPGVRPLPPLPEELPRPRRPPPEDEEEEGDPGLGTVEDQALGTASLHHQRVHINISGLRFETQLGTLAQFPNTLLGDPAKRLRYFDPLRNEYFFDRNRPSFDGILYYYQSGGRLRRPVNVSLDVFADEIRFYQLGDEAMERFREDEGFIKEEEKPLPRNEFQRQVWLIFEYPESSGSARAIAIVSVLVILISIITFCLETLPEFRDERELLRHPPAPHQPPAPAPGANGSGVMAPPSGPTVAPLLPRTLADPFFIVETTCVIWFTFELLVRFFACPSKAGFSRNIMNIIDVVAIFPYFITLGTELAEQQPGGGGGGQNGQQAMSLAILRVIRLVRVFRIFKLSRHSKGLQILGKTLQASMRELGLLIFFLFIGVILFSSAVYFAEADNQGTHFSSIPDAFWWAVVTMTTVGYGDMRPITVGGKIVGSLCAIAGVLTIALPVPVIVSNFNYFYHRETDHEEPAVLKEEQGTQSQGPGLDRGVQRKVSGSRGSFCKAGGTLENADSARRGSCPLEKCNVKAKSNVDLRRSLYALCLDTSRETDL
Protocol Text: Kv1.5 currents in Xenopus oocytes, 2-microelectrode voltage clamp
Measurement Parameters: human Kv1.5 expressed in Xenopus laevis oocytes; voltage jumps to 0 mV and 40 mV lasting 500 ms; room temperature; Hill equation
pIC50: −log10 of the molar value.
Reported Endpoint: pIC50

Compound Structure | Inequality Sign | Reported
CC(C)(C)OC(=O)NCc1ccccc1-c1sccc1C(=O)NCc1ccc(F)cc1F | = | 5.51
COc1ccc(CC(=O)NCc2ccccc2-c2ccsc2C(=O)NCCC(C)C)cc1 | = | 5.77
COc1ccc(CC(=O)NCc2ccccc2-c2sccc2C(=O)NCCC(C)C)cc1 | = | 5.66
CC(C)CCNC(=O)c1sccc1-c1ccccc1CNC(=O)OC(C)(C)C | = | 5.40
O=C(NCc1ccccc1-c1occc1C(=O)NCc1ccc(F)cc1F)OCc1ccccc1 | = | 5.28
COc1ccc(CC(=O)NCc2ccccc2-c2sccc2C(=O)NCc2ccc(F)cc2F)cc1 | = | 5.82
CC(C)CCNC(=O)c1sccc1-c1ccccc1CNC(=O)OCc1ccccc1 | = | 5.52
CC(C)CCNC(=O)c1ccoc1-c1ccccc1CNC(=O)OC(C)(C)C | = | 5.28
COc1ccc(CC(=O)NCc2ccccc2-c2ccsc2C(=O)NCc2ccc(F)cc2F)cc1 | = | 5.92
CC(C)CCNC(=O)c1occc1-c1ccccc1CNC(=O)OCc1ccccc1 | = | 5.25
COc1ccc(CC(=O)NCc2ccccc2-c2ccc(C(=O)NCCC(C)C)o2)cc1 | > | 4.00
CC(C)(C)OC(=O)NCc1ccccc1-c1ccc(C(=O)NCc2ccc(F)cc2F)o1 | > | 4.00
COc1ccc(CC(=O)NCc2ccccc2-c2ccc(C(=O)NCc3ccc(F)cc3F)o2)cc1 | = | 5.38
CC(C)(C)OC(=O)NCc1ccccc1-c1ccsc1C(=O)NCc1ccc(F)cc1F | = | 5.30
CC(C)CCNC(=O)c1ccoc1-c1ccccc1CNC(=O)OCc1ccccc1 | = | 5.66
CC(C)CCNC(=O)c1ccsc1-c1ccccc1CNC(=O)OCc1ccccc1 | = | 5.92
O=C(NCc1ccccc1-c1ccc(C(=O)NCc2ccc(F)cc2F)o1)OCc1ccccc1 | > | 4.00
O=C(NCc1ccccc1-c1ccoc1C(=O)NCc1ccc(F)cc1F)OCc1ccccc1 | > | 4.00
CC(C)CCNC(=O)c1ccsc1-c1ccccc1CNC(=O)OC(C)(C)C | > | 4.00
CC(C)CCNC(=O)c1occc1-c1ccccc1CNC(=O)OC(C)(C)C | = | 5.00
CC(C)(C)OC(=O)NCc1ccccc1-c1ccoc1C(=O)NCc1ccc(F)cc1F | = | 5.05
O=C(NCc1ccccc1-c1ccsc1C(=O)NCc1ccc(F)cc1F)OCc1ccccc1 | = | 5.70
COc1ccc(CC(=O)NCc2ccccc2-c2occc2C(=O)NCc2ccc(F)cc2F)cc1 | = | 5.18
COc1ccc(CC(=O)NCc2ccccc2-c2ccoc2C(=O)NCc2ccc(F)cc2F)cc1 | = | 5.41
CC(C)(C)OC(=O)NCc1ccccc1-c1occc1C(=O)NCc1ccc(F)cc1F | = | 5.00
COc1ccc(CC(=O)NCc2ccccc2-c2ccoc2C(=O)NCCC(C)C)cc1 | > | 4.00
COc1ccc(CC(=O)NCc2ccccc2-c2occc2C(=O)NCCC(C)C)cc1 | = | 5.41
CC(C)CCNC(=O)c1ccc(-c2ccccc2CNC(=O)OC(C)(C)C)o1 | > | 4.00
O=C(NCc1ccccc1-c1sccc1C(=O)NCc1ccc(F)cc1F)OCc1ccccc1 | = | 5.72
